Provenance of the data: patent US6723753B2

test.system: CETP (Homo sapiens)
method.description: Assay of CETP Inhibition using Purified Components (Reconstituted Buffer Assay)
Type: biochemical
Parameters: made in house; host or cells: CHO cells (serum-free conditioned medium)
reported.conditions: Inhibition of CETP activity in reconstituted buffer assay; transfer of [3H]CE from HDL to LDL; read-out: IC50
pIC50: −log10 of the molar value.
quantity.measured: pIC50

[[record]]
compound = "OC(CN(Cc1cccc(Oc2ccccc2)c1)c1cccc(OCc2ccccc2)c1)C(F)(F)F (stereo not shown)"
test_system = "CETP (Homo sapiens)"
quantity_measured = "pIC50"
numeric_value = 5.15

[[record]]
compound = "O=S(=O)(c1ccccc1)c1cccc(N(Cc2cccc(OC(F)(F)C(F)F)c2)CC(O)C(F)(F)F)c1 (stereo not shown)"
test_system = "CETP (Homo sapiens)"
quantity_measured = "pIC50"
numeric_value = 6.04


P: OC(CN(Cc1cccc(OC(F)(F)C(F)F)c1)c1cccc(Nc2cccc(C(F)(F)F)c2)c1)C(F)(F)F (stereo not shown)
Q: CC(=O)c1ccc(Sc2cccc(N(Cc3cccc(OC(F)(F)C(F)F)c3)CC(O)C(F)(F)F)c2)cc1 (stereo not shown)
[ask] Lab note: check whether P or Q has the lower measured pIC50. // output: label of the selected item
[reply] P
(P: 5.18, Q: 5.74)

A: OC(CN(Cc1cccc(OC(F)(F)C(F)F)c1)c1cccc(OCc2c(F)cccc2F)c1)C(F)(F)F (stereo not shown)
B: OC(CN(Cc1cccc(OC(F)(F)C(F)F)c1)c1cccc(Nc2ccc(Cl)cc2)c1)C(F)(F)F (stereo not shown)
[ask] Lab note: check whether A or B has the lower measured pIC50. // output: label of the selected item
[reply] A

P: O=C(c1cccc(CN(CC(O)C(F)(F)F)c2cccc(Oc3ccccc3)c2)c1)N1CCCC1 (stereo not shown)
Q: CC(C)(C)C(=O)COc1cccc(N(Cc2cccc(OC(F)(F)C(F)F)c2)CC(O)C(F)(F)F)c1 (stereo not shown)
[ask] Lab note: check whether P or Q has the lower measured pIC50. // output: label of the selected item
[reply] P
(P: 4.74, Q: 5.68)

I: Nc1cccc(-c2cccc(N(Cc3cccc(OC(F)(F)C(F)F)c3)CC(O)C(F)(F)F)c2)c1 (stereo not shown)
II: CC(=O)Oc1ccc(CN(CC(O)C(F)(F)F)c2cccc(OC(F)(F)F)c2)cc1OC(C)=O (stereo not shown)
[ask] Lab note: check whether I or II has the lower measured pIC50. // output: label of the selected item
[reply] II

a: OC(CN(Cc1cccc(Oc2ccccc2)c1)c1ccc(-c2ccccc2)cc1)C(F)(F)F (stereo not shown)
b: OC(CN(Cc1cccc(OC(F)(F)C(F)F)c1)c1cc(Oc2ccc(F)cc2)cc(C(F)(F)F)c1)C(F)(F)F (stereo not shown)
[ask] Lab note: check whether a or b has the lower measured pIC50. // output: label of the selected item
[reply] a

====

test.system: CETP (Homo sapiens, UniProt P11597)
Sequence (P11597 18-493): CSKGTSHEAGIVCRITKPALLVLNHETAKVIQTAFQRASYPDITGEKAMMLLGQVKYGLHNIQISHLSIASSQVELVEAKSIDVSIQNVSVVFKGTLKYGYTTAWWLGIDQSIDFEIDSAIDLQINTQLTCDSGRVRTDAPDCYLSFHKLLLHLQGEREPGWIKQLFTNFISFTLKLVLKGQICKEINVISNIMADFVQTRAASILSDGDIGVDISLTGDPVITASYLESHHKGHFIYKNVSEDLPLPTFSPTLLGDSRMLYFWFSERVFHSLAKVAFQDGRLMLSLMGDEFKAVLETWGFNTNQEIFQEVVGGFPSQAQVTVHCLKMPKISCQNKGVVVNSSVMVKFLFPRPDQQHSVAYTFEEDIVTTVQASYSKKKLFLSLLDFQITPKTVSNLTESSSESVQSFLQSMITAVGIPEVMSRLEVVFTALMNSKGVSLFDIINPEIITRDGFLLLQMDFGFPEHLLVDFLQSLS
method.description: Assay of CETP Inhibition using Purified Components (Reconstituted Buffer Assay)
Assay type: biochemical
Parameters: made in house; host or cells: CHO cells (serum-free conditioned medium)
reported.conditions: Inhibition of CETP activity in reconstituted buffer assay; transfer of [3H]CE from HDL to LDL; read-out: IC50
pIC50: −log10 of the molar value.
quantity.measured: pIC50

Here is how some molecules turned out for pIC50.
[[record]]
molecule = "Cc1cccc(COc2cccc(N(Cc3cccc(OC(F)(F)C(F)F)c3)CC(O)C(F)(F)F)c2)c1F (stereo not shown) [Example 425]"
numeric_value = 6.47

[[record]]
molecule = "OC(CN(Cc1cccc(OC(F)(F)C(F)F)c1)c1cccc(Oc2ccccc2F)c1)C(F)(F)F (stereo not shown) [Example 223]"
numeric_value = 6.54

[[record]]
molecule = "OC(CN(Cc1ccc(OCc2ccccc2)cc1)c1cccc(OC(F)(F)F)c1)C(F)(F)F (stereo not shown) [Example 683]"
numeric_value = 4.70

[[record]]
molecule = "CSc1ccc(Cc2cccc(N(Cc3cccc(OC(F)(F)C(F)F)c3)CC(O)C(F)(F)F)c2)cc1 (stereo not shown) [Example 526]"
numeric_value = 5.85

[[record]]
molecule = "CN(C)C(=O)c1cccc(CN(CC(O)C(F)(F)F)c2cccc(Oc3ccccc3)c2)c1 (stereo not shown) [Example 612]"
numeric_value = 4.46


I: O=[N+]([O-])c1cccc(CN(CC(O)C(F)(F)F)c2cccc(Oc3ccccc3)c2)c1 (stereo not shown) [Example 113]
II: CC(C)CNc1cccc(N(Cc2cccc(OC(F)(F)C(F)F)c2)CC(O)C(F)(F)F)c1 (stereo not shown) [Example 541]
[ask] Lab note: check whether I or II has the lower measured pIC50. // output: label of the selected item
[reply] I
(I: 4.70, II: 6.01)

A: OC(CN(Cc1cccc(Cc2ccccc2)c1)c1cccc(Oc2ccccc2)c1)C(F)(F)F (stereo not shown) [Example 596]
B: O=[N+]([O-])c1cccc(Cc2cccc(N(Cc3cccc(OC(F)(F)C(F)F)c3)CC(O)C(F)(F)F)c2)c1 (stereo not shown) [Example 516]
[ask] Lab note: check whether A or B has the lower measured pIC50. // output: label of the selected item
[reply] A

I: OC(CN(Cc1cccc(OC(F)(F)F)c1)c1cccc(C(F)(F)F)c1)C(F)(F)F (stereo not shown) [Example 42]
II: Cc1cccc(N(Cc2ccc(C(F)(F)F)cc2)CC(O)C(F)(F)F)c1 (stereo not shown) [Example 39]
[ask] I need your help: which of the pair I , II has higher pIC50? // output: label of the selected item
[reply] I
